# Measurement target: α-syn fibrils (Homo sapiens)
# Assay overview: α-Synuclein fibril/ligand saturation binding assay
# Reported conditions: Kd α-syn, Table 1; synthetic α-syn fibrils 2.5 μM, 1 hour; mean ± SD (n = 3)
Measurement kind: pKd
Remember the convention: pKd equals -log10 of concentration in molar.

-- ask // pKd lookup, key: O=C(O)c1ccc(-c2ccc(/C=C/C=C3C(=O)c4ccccc4C3=O)cc2)cc1
-- reply 5.85

-- ask Cool, now COc1cc(-c2ccc(/C=C3/CCc4ccccc4C3=O)s2)ccc1O
-- reply 6.96

-- ask Cool, now O=C1/C(=C\c2ccc(-c3ccc(CO)cc3)s2)CCc2ccccc21
-- reply 6.79

-- ask Cool, now CN(C)c1ncc(-c2ccc(/C=C3/Cc4ccc(O)cc4C3=O)s2)cn1
-- reply 6.63

-- ask Cool, now O=C1/C(=C/C=C/c2ccc([N+](=O)[O-])cc2)Cc2cc(F)cc(F)c21
-- reply 6.40

-- ask Cool, now COc1cc(/C=C/C=C2\Cc3cc(F)cc(F)c3C2=O)ccc1O
-- reply 6.62
